protocol.description: TLR3 IRF3 reporter activation blockers – cell-based, poly I:C stimulus, luciferase, 10K MLSCN set, primary screen (AID 602277)
measurement.parameters: HEK293-TLR3 RL24 IRF3 luciferase reporter, at 10 µM, active compounds read high
recorded.endpoint: inhibition (%)

{"molecule": "COc1ccc(-c2nc(C#N)c(N3CCOCC3)o2)cc1OC", "result.unit": "%", "result": -1.53}
{"molecule": "CC1=C(C(N)=O)C(c2cccnc2)n2nc(SCc3ccccc3Cl)nc2N1 (centres undefined)", "result.unit": "%", "result": 19.5}
{"molecule": "CCN(CC)CCCNS(=O)(=O)c1ccc(OC)cc1", "result.unit": "%", "result": 27.9}
{"molecule": "COc1ccc(CN(Cc2cc3cc4c(cc3[nH]c2=O)OCO4)C(=O)NC2CCCCC2)cc1", "result.unit": "%", "result": -1.61}
{"molecule": "O=C(Nc1nc(-c2ccncc2)cs1)C1COc2ccccc2O1 (centres undefined)", "result.unit": "%", "result": -29.4}
{"molecule": "COc1ccccc1-n1c(-c2cccnc2)n[nH]c1=S", "result.unit": "%", "result": -12.6}
{"molecule": "Cc1ccc(OCc2nnc(SCC(=O)N3CCOCC3)n2C)cc1", "result.unit": "%", "result": 6.14}
{"molecule": "COC(=O)CNC(=O)COC(=O)c1cc(Cl)cc(Cl)c1N", "result.unit": "%", "result": 3.33}
{"molecule": "COc1ccc(N2CCN(c3ccc(NC(=O)C4CCCCC4)cc3C#N)CC2)cc1", "result.unit": "%", "result": 7.51}
